- Measurement Parameters: in 1,4-dioxane, 329.35 K
Measurement Label: solubility (mole fraction)
// return a plain number; no unit text

stdin: // lookup solubility (mole fraction) for "c1ccc(-c2cc3ccccc3[nH]2)cc1"
stdout: 0.201

###

- Measurement Parameters: in ethanol, 334.05 K
Measurement Label: solubility (mole fraction)
// return a plain number; no unit text

stdin: // lookup solubility (mole fraction) for "c1ccc(-c2cc3ccccc3[nH]2)cc1"
stdout: 0.0249

###

- Measurement Parameters: in acetone, 289.05 K
Measurement Label: solubility (mole fraction)
// return a plain number; no unit text

stdin: // lookup solubility (mole fraction) for "c1ccc(-c2cc3ccccc3[nH]2)cc1"
stdout: 0.0951

###

- Measurement Parameters: in MTBE, 308.95 K
Measurement Label: solubility (mole fraction)
// return a plain number; no unit text

stdin: // lookup solubility (mole fraction) for "c1ccc(-c2cc3ccccc3[nH]2)cc1"
stdout: 0.0428

###

- Measurement Parameters: in isopropanol, 302.45 K
Measurement Label: solubility (mole fraction)
// return a plain number; no unit text

stdin: // lookup solubility (mole fraction) for "c1ccc(-c2cc3ccccc3[nH]2)cc1"
stdout: 0.00963

###

- Measurement Parameters: in THF, 303.95 K
Measurement Label: solubility (mole fraction)
// return a plain number; no unit text

stdin: // lookup solubility (mole fraction) for "c1ccc(-c2cc3ccccc3[nH]2)cc1"
stdout: 0.211

###

- Measurement Parameters: in ethanol, 318.25 K
Measurement Label: solubility (mole fraction)
// return a plain number; no unit text

stdin: // lookup solubility (mole fraction) for "c1ccc(-c2cc3ccccc3[nH]2)cc1"
stdout: 0.0173

###

- Measurement Parameters: in ethanol, 329.05 K
Measurement Label: solubility (mole fraction)
// return a plain number; no unit text

stdin: // lookup solubility (mole fraction) for "c1ccc(-c2cc3ccccc3[nH]2)cc1"
stdout: 0.0217

###

- Measurement Parameters: in sec-butanol, 296.95 K
Measurement Label: solubility (mole fraction)

stdin: // lookup solubility (mole fraction) for "c1ccc(-c2cc3ccccc3[nH]2)cc1"
stdout: 0.00879

###

- Measurement Parameters: in 1,2-dichloroethane, 334.05 K
Measurement Label: solubility (mole fraction)
// return a plain number; no unit text

stdin: // lookup solubility (mole fraction) for "c1ccc(-c2cc3ccccc3[nH]2)cc1"
stdout: 0.0575

###

- Measurement Parameters: in 1,4-dioxane, 303.95 K
Measurement Label: solubility (mole fraction)
// return a plain number; no unit text

stdin: // lookup solubility (mole fraction) for "c1ccc(-c2cc3ccccc3[nH]2)cc1"
stdout: 0.0735

###

- Measurement Parameters: in n-propanol, 308.55 K
Measurement Label: solubility (mole fraction)
// return a plain number; no unit text

stdin: // lookup solubility (mole fraction) for "c1ccc(-c2cc3ccccc3[nH]2)cc1"
stdout: 0.0134

###

- Measurement Parameters: in toluene, 303.95 K
Measurement Label: solubility (mole fraction)
// return a plain number; no unit text

stdin: // lookup solubility (mole fraction) for "c1ccc(-c2cc3ccccc3[nH]2)cc1"
stdout: 0.0141

###

- Measurement Parameters: in THF, 308.95 K
Measurement Label: solubility (mole fraction)

stdin: // lookup solubility (mole fraction) for "c1ccc(-c2cc3ccccc3[nH]2)cc1"
stdout: 0.218

###

- Measurement Parameters: in toluene, 299.15 K
Measurement Label: solubility (mole fraction)

stdin: // lookup solubility (mole fraction) for "c1ccc(-c2cc3ccccc3[nH]2)cc1"
stdout: 0.0122

###

- Measurement Parameters: in sec-butanol, 313.15 K
Measurement Label: solubility (mole fraction)
// return a plain number; no unit text

stdin: // lookup solubility (mole fraction) for "c1ccc(-c2cc3ccccc3[nH]2)cc1"
stdout: 0.0157

###

- Measurement Parameters: in n-propanol, 323.25 K
Measurement Label: solubility (mole fraction)
// return a plain number; no unit text

stdin: // lookup solubility (mole fraction) for "c1ccc(-c2cc3ccccc3[nH]2)cc1"
stdout: 0.0206

###

- Measurement Parameters: in acetone, 313.65 K
Measurement Label: solubility (mole fraction)
// return a plain number; no unit text

stdin: // lookup solubility (mole fraction) for "c1ccc(-c2cc3ccccc3[nH]2)cc1"
stdout: 0.142

###

- Measurement Parameters: in ethyl acetate, 334.15 K
Measurement Label: solubility (mole fraction)
// return a plain number; no unit text

stdin: // lookup solubility (mole fraction) for "c1ccc(-c2cc3ccccc3[nH]2)cc1"
stdout: 0.128

###

- Measurement Parameters: in n-butanol, 313.15 K
Measurement Label: solubility (mole fraction)
// return a plain number; no unit text

stdin: // lookup solubility (mole fraction) for "c1ccc(-c2cc3ccccc3[nH]2)cc1"
stdout: 0.0181

###

- Measurement Parameters: in acetonitrile, 299.15 K
Measurement Label: solubility (mole fraction)
// return a plain number; no unit text

stdin: // lookup solubility (mole fraction) for "c1ccc(-c2cc3ccccc3[nH]2)cc1"
stdout: 0.02

###

- Measurement Parameters: in MTBE, 318.65 K
Measurement Label: solubility (mole fraction)
// return a plain number; no unit text

stdin: // lookup solubility (mole fraction) for "c1ccc(-c2cc3ccccc3[nH]2)cc1"
stdout: 0.049

###

- Measurement Parameters: in THF, 293.15 K
Measurement Label: solubility (mole fraction)
// return a plain number; no unit text

stdin: // lookup solubility (mole fraction) for "c1ccc(-c2cc3ccccc3[nH]2)cc1"
stdout: 0.194

###

- Measurement Parameters: in n-propanol, 313.15 K
Measurement Label: solubility (mole fraction)

stdin: // lookup solubility (mole fraction) for "c1ccc(-c2cc3ccccc3[nH]2)cc1"
stdout: 0.0156

###

- Measurement Parameters: in toluene, 289.05 K
Measurement Label: solubility (mole fraction)
// return a plain number; no unit text

stdin: // lookup solubility (mole fraction) for "c1ccc(-c2cc3ccccc3[nH]2)cc1"
stdout: 0.00911

###

- Measurement Parameters: in 1,2-dichloroethane, 296.95 K
Measurement Label: solubility (mole fraction)
// return a plain number; no unit text

stdin: // lookup solubility (mole fraction) for "c1ccc(-c2cc3ccccc3[nH]2)cc1"
stdout: 0.0186

###

- Measurement Parameters: in ethanol, 302.45 K
Measurement Label: solubility (mole fraction)

stdin: // lookup solubility (mole fraction) for "c1ccc(-c2cc3ccccc3[nH]2)cc1"
stdout: 0.012

###

- Measurement Parameters: in methanol, 302.45 K
Measurement Label: solubility (mole fraction)
// return a plain number; no unit text

stdin: // lookup solubility (mole fraction) for "c1ccc(-c2cc3ccccc3[nH]2)cc1"
stdout: 0.00709

###

- Measurement Parameters: in acetonitrile, 308.95 K
Measurement Label: solubility (mole fraction)

stdin: // lookup solubility (mole fraction) for "c1ccc(-c2cc3ccccc3[nH]2)cc1"
stdout: 0.0283

###

- Measurement Parameters: in n-butanol, 296.95 K
Measurement Label: solubility (mole fraction)
// return a plain number; no unit text

stdin: // lookup solubility (mole fraction) for "c1ccc(-c2cc3ccccc3[nH]2)cc1"
stdout: 0.0123

###

- Measurement Parameters: in methanol, 308.55 K
Measurement Label: solubility (mole fraction)
// return a plain number; no unit text

stdin: // lookup solubility (mole fraction) for "c1ccc(-c2cc3ccccc3[nH]2)cc1"
stdout: 0.00835

###

- Measurement Parameters: in acetone, 293.15 K
Measurement Label: solubility (mole fraction)
// return a plain number; no unit text

stdin: // lookup solubility (mole fraction) for "c1ccc(-c2cc3ccccc3[nH]2)cc1"
stdout: 0.106

###

- Measurement Parameters: in ethyl acetate, 308.95 K
Measurement Label: solubility (mole fraction)
// return a plain number; no unit text

stdin: // lookup solubility (mole fraction) for "c1ccc(-c2cc3ccccc3[nH]2)cc1"
stdout: 0.0879

###

- Measurement Parameters: in acetone, 324.05 K
Measurement Label: solubility (mole fraction)
// return a plain number; no unit text

stdin: // lookup solubility (mole fraction) for "c1ccc(-c2cc3ccccc3[nH]2)cc1"
stdout: 0.16

###

- Measurement Parameters: in THF, 334.15 K
Measurement Label: solubility (mole fraction)

stdin: // lookup solubility (mole fraction) for "c1ccc(-c2cc3ccccc3[nH]2)cc1"
stdout: 0.256

###

- Measurement Parameters: in toluene, 313.65 K
Measurement Label: solubility (mole fraction)
// return a plain number; no unit text

stdin: // lookup solubility (mole fraction) for "c1ccc(-c2cc3ccccc3[nH]2)cc1"
stdout: 0.0191

###

- Measurement Parameters: in THF, 318.65 K
Measurement Label: solubility (mole fraction)

stdin: // lookup solubility (mole fraction) for "c1ccc(-c2cc3ccccc3[nH]2)cc1"
stdout: 0.232

###

- Measurement Parameters: in acetonitrile, 289.05 K
Measurement Label: solubility (mole fraction)
// return a plain number; no unit text

stdin: // lookup solubility (mole fraction) for "c1ccc(-c2cc3ccccc3[nH]2)cc1"
stdout: 0.0144

###

- Measurement Parameters: in ethyl acetate, 303.95 K
Measurement Label: solubility (mole fraction)
// return a plain number; no unit text

stdin: // lookup solubility (mole fraction) for "c1ccc(-c2cc3ccccc3[nH]2)cc1"
stdout: 0.0814
